run_description: Therapeutic ratio as optimal dose/minimal effective dose
Assay type: ADME
measurement_parameters: mouse, p388; read-out: TR
# selectivity ratio listing for each entry below
Give a plain numeric answer without units written out.

Reference set (5 entries):
COCC/N=C1/C(=O)C2=C(C(O)=C1C)N1C[C@H]3N[C@H]3C1(OC)[C@H]2COC(N)=O (some centres not stated) = 16
COC12[C@@H]3N[C@@H]3CN1C1=C(C(=O)/C(=N/CCc3ccc(O)cc3)C(C)=C1O)[C@@H]2COC(N)=O (some centres not stated) = 16
CCSCC/N=C1/C(=O)C2=C(C(O)=C1C)N1C[C@@H]3[C@@H](N3C)C1(OC)[C@H]2COC(N)=O (some centres not stated) = 4
COC12[C@@H]3N[C@@H]3CN1C1=C(C(=O)C(NCCCl)=C(C)C1=O)[C@@H]2COC(N)=O (some centres not stated) = 8
COC12[C@@H]3N[C@@H]3CN1C1=C(C(=O)/C(=N/CCN3CCOCC3)C(C)=C1O)[C@@H]2COC(N)=O (some centres not stated) = 4

Request: Consider the molecule CC/N=C1/C(=O)C2=C(C(O)=C1C)N1C[C@H]3N[C@H]3C1(OC)[C@H]2COC(N)=O (some centres not stated) . State its measured selectivity ratio.
Result: 32

Request: Consider the molecule CO[C@@]12[C@H](COC(N)=O)C3=C(C(=O)C(C)=C(N)C3=O)N1C[C@@H]1N[C@@H]12 . State its measured selectivity ratio.
Result: 16

---

# T/C listing for each entry below
System: L1210
run_description: Maximum % T/C against L-1210 leukemia cells in mice.
Format: functional, Mus musculus
Unit % implied. Number only.

COC12[C@@H]3N[C@@H]3CN1C1=C(C(=O)/C(=N/CCN3CCCC3)C(C)=C1O)[C@@H]2COC(N)=O (some centres not stated) = 125
CCSCC/N=C1/C(=O)C2=C(C(O)=C1C)N1C[C@H]3N[C@H]3C1(OC)[C@H]2COC(N)=O (some centres not stated) = 141
COCC/N=C1/C(=O)C2=C(C(O)=C1C)N1C[C@H]3N[C@H]3C1(OC)[C@H]2COC(N)=O (some centres not stated) = 143
COC12[C@@H]3N[C@@H]3CN1C1=C(C(=O)/C(=N/CCS)C(C)=C1O)[C@@H]2COC(N)=O (some centres not stated) = 168
COC12[C@@H](COC(N)=O)C3=C(C(O)=C(C)/C(=N\CCS)C3=O)N1C[C@@H]1[C@H]2N1C (some centres not stated) = 129

Request: Provide T/C, system L1210, entry CCSCC/N=C1/C(=O)C2=C(C(O)=C1C)N1C[C@@H]3[C@@H](N3C)C1(OC)[C@H]2COC(N)=O (some centres not stated)
Result: 143

Request: Provide T/C, system L1210, entry COC12[C@@H]3N[C@@H]3CN1C1=C(C(=O)/C(=N/CCc3ccc(O)cc3)C(C)=C1O)[C@@H]2COC(N)=O (some centres not stated)
Result: 125

Request: Provide T/C, system L1210, entry COC(C/N=C1/C(=O)C2=C(C(O)=C1C)N1C[C@H]3N[C@H]3C1(OC)[C@H]2COC(N)=O)OC (some centres not stated)
Result: 151

Request: Provide T/C, system L1210, entry COC12[C@@H]3N[C@@H]3CN1C1=C(C(=O)C(NCCC#N)=C(C)C1=O)[C@@H]2COC(N)=O (some centres not stated)
Result: 130

---

run_description: Partition coefficient (logP)
Format: physicochemical
measurement_parameters: octanol/water
Please respond with True when measured logP is strictly beneath 0.3, and with False in all other cases.

Solved cases below.
COC12[C@@H]3N[C@@H]3CN1C1=C(C(=O)/C(=N/CCO)C(C)=C1O)[C@@H]2COC(N)=O (stereo not given in full) = True
CCSCC/N=C1/C(=O)C2=C(C(O)=C1C)N1C[C@H]3N[C@H]3C1(OC)[C@H]2COC(N)=O (stereo not given in full) = False
COCC/N=C1/C(=O)C2=C(C(O)=C1C)N1C[C@H]3N[C@H]3C1(OC)[C@H]2COC(N)=O (stereo not given in full) = True
COC12[C@@H]3N[C@@H]3CN1C1=C(C(=O)/C(=N/CCF)C(C)=C1O)[C@@H]2COC(N)=O (stereo not given in full) = True
COC12[C@@H]3N[C@@H]3CN1C1=C(C(=O)/C(=N/CCN)C(C)=C1O)[C@@H]2COC(N)=O (stereo not given in full) = True

Request: Just wondering, is logP of COC12[C@@H]3N[C@@H]3CN1C1=C(C(=O)C(NCCC#N)=C(C)C1=O)[C@@H]2COC(N)=O (stereo not given in full) below 0.3?
Result: True

Request: Just wondering, is logP of CC/N=C1/C(=O)C2=C(C(O)=C1C)N1C[C@H]3N[C@H]3C1(OC)[C@H]2COC(N)=O (stereo not given in full) below 0.3?
Result: False

Request: Just wondering, is logP of COC12[C@@H]3N[C@@H]3CN1C1=C(C(=O)C(NCCCl)=C(C)C1=O)[C@@H]2COC(N)=O (stereo not given in full) below 0.3?
Result: False

Request: Just wondering, is logP of COC12[C@@H]3N[C@@H]3CN1C1=C(C(=O)/C(=N/CCS)C(C)=C1O)[C@@H]2COC(N)=O (stereo not given in full) below 0.3?
Result: False

Request: Just wondering, is logP of COC12[C@@H]3N[C@@H]3CN1C1=C(C(=O)C(NCCc3ccccc3)=C(C)C1=O)[C@@H]2COC(N)=O (stereo not given in full) below 0.3?
Result: False

---

# T/C listing for each entry below
Test system: L1210
run_description: Maximum % T/C against L-1210 leukemia cells in mice.
Assay type: functional, Mus musculus
Unit % implied. Number only.

Reference set (2 entries):
COC12[C@@H]3N[C@@H]3CN1C1=C(C(=O)/C(=N/CCN3CCOCC3)C(C)=C1O)[C@@H]2COC(N)=O (stereo partly drawn) = 132
COC12[C@@H]3N[C@@H]3CN1C1=C(C(=O)C(NCCN(C)C)=C(C)C1=O)[C@@H]2COC(N)=O (stereo partly drawn) = 136

Request: Provide T/C, system L1210, entry CO[C@@]12[C@H](COC(N)=O)C3=C(C(=O)C(C)=C(N)C3=O)N1C[C@@H]1N[C@@H]12
Result: 124
